tested on: RKN (Other Solid Carcinomas); assay: Bliss excess, mean over the matrix (fraction); higher = more synergy;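 also: after 72 h of two-drug dosing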
EXPERIMENTAL_READOUT: Bliss excess

MOLECULE	TARGET_OR_TEST_SYSTEM	READOUT_NUMBER
C=CCn1c(=O)c2cnc(Nc3ccc(N4CCN(C)CC4)cc3)nc2n1-c1cccc(C(C)(C)O)n1 [AZD1775] + C[C@@H]1COCCN1C2=NC(=NC(=C2)C3(CC3)[S@](=N)(=O)C)C4=C5C=CNC5=NC=C4 [AZD6738] (first compound max 1 µM, partner max 10 µM)	RKN (Other Solid Carcinomas)	-0.0029
CN(CCO)CC[C@H](CSc1ccccc1)Nc1ccc(S(=O)(=O)NC(=O)c2ccc(N3CCC([C@@H](O)c4ccccc4-c4ccc(Cl)cc4)CC3)cc2)cc1S(=O)(=O)C(F)(F)F [AZD4320] + Nc1ccn([C@@H]2O[C@H](CO)[C@@H](O)C2(F)F)c(=O)n1 [Gemcitabine] (first compound max 1 µM, 7x7, partner max 0.3 µM)	RKN (Other Solid Carcinomas)	-0.0164
Cc1cc2ncnn2cc1Nc1ncc2c(n1)n(C1CCOCC1)c(=O)n2C [AZD7648] + C=CCn1c(=O)c2cnc(Nc3ccc(N4CCN(C)CC4)cc3)nc2n1-c1cccc(C(C)(C)O)n1 [AZD1775] (first compound max 10 µM, partner max 1 µM)	RKN (Other Solid Carcinomas)	0.0089
CN(C)CCCOc1ccc(-c2ccc3ncc4c(c3c2)n(C2CCOCC2)c(=O)n4C)cn1 [AZD0156] + C=CCn1c(=O)c2cnc(Nc3ccc(N4CCN(C)CC4)cc3)nc2n1-c1cccc(C(C)(C)O)n1 [AZD1775] (first compound max 1 µM, partner max 1 µM)	RKN (Other Solid Carcinomas)	-0.0683
CN(C)CCCOc1ccc(-c2ccc3ncc4c(c3c2)n(C2CCOCC2)c(=O)n4C)cn1 [AZD0156] + CCN(CCO)CCCOc1ccc2c(Nc3cc(CC(=O)Nc4cccc(F)c4)[nH]n3)ncnc2c1 [AZD2811] (first compound max 1 µM, 7x7, partner max 1 µM)	RKN (Other Solid Carcinomas)	-0.0417
COc1cc2c(cc1OCCCCCOc1cc3c(cc1OC)C(=O)N1C=C(C)C[C@H]1C=N3)N=C[C@@H]1CC(C)=CN1C2=O [SG3199] + O=C(c1cc(Cc2n[nH]c(=O)c3ccccc23)ccc1F)N1CCN(C(=O)C2CC2)CC1 [Olaparib] (first compound max 0.001 µM, 7x7, partner max 10 µM)	RKN (Other Solid Carcinomas)	-0.0377
COc1nnc2ccc(N3CCC(c4ccc(OCCN5CCN(C)C(=O)[C@H]5C)cc4)CC3)nn12 [AZD5153] + C[C@@H]1COCCN1C2=NC(=NC(=C2)C3(CC3)[S@](=N)(=O)C)C4=C5C=CNC5=NC=C4 [AZD6738] (first compound max 1 µM, 7x7, partner max 10 µM)	RKN (Other Solid Carcinomas)	-0.0757

---

test system: GP5d (Colorectal Carcinoma); test: combination Emax (second highest fraction inhibited in the dose matrix, 72 h); higher = more inhibition; extreme values may be limits of the assay
Let's look at some molecules and their measured combination Emax.

MOLECULE	combination Emax
CN(C)CCCOc1ccc(-c2ccc3ncc4c(c3c2)n(C2CCOCC2)c(=O)n4C)cn1 [AZD0156] + C=CCn1c(=O)c2cnc(Nc3ccc(N4CCN(C)CC4)cc3)nc2n1-c1cccc(C(C)(C)O)n1 [AZD1775] (first compound max 1 µM, partner max 1 µM)	0.664
CN(C)CCCOc1ccc(-c2ccc3ncc4c(c3c2)n(C2CCOCC2)c(=O)n4C)cn1 [AZD0156] + CCN(CCO)CCCOc1ccc2c(Nc3cc(CC(=O)Nc4cccc(F)c4)[nH]n3)ncnc2c1 [AZD2811] (first compound max 1 µM, 7x7, partner max 1 µM)	0.456
